Data provenance is PubChem BioAssay AID504652.

Molecular target: D(1A) dopamine receptor (Homo sapiens)
Test: Antagonist of Human D 1 Dopamine Receptor: qHTS
Details: HEK293 TREx D1 cells, calcium flux, dopamine EC80; at 10 µM
Out of some 360,000 compounds screened, about 11,000 (3.1%) were called active. No stated cut-off is given here; in the data, active means activity change below about -30%; inactive means the rest. What follows is part of a selection rich in actives, with near analogues and random picks from the rest.
Answer with one of the outcomes given here: yes (active), no (inactive)

Some entries whose results are on file:
{"Compound": "COC(=O)c1ccccc1NS(=O)(=O)c1ccc2[nH]c(=O)[nH]c2c1", "Label value": "no"}
{"Compound": "COc1cc(NC(=O)c2ccccc2NS(=O)(=O)c2ccc(Cl)s2)cc(OC)c1", "Label value": "no"}
{"Compound": "Cc1c(NC(=O)/C=C/C(=O)O)cccc1[N+](=O)[O-]", "Label value": "yes"}

Called result for `N/C(=N\OC(=O)CCc1ccccc1)c1ccc(Cl)cc1`
no

Called result for CC(CCCc1ccccc1)NC(=O)c1nn(-c2ccc(Cl)cc2)nc1CO (stereo unspecified)
no

Called result for `Cc1c(NC(=O)CCCOc2ccccc2)cccc1[N+](=O)[O-]`
no

Called result for `O=C(Nc1cccc(Cl)c1)Nc1ccccc1NS(=O)(=O)c1cccs1`
yes

Called result for `O=C(O)/C=C/C(=O)NNc1ccc([N+](=O)[O-])cc1`
no

Called result for `O=S(=O)(Nc1ccccc1)c1ccc(NS(=O)(=O)c2cccs2)cc1`
no

Called result for `O=[N+]([O-])c1ccccc1NCc1ccc(Cl)cc1`
no

Called result for `COC(=O)c1ccc(NC(=O)c2ccccc2NS(=O)(=O)c2ccccc2)cc1`
yes
